Cited source for all entries: the supplement of paper PMC10567573

B1: CLINT1 (parent)
chain: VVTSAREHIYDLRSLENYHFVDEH

variants of: B1; experiment: protein stability index of a GFP-peptide fusion (GPS, HEK-293T) (PSI 1-6); higher = more stable; conditions: c terminus: a fixed tail appended;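 also: lentivirally expressed fusions sorted by FACS into six bins by GFP to DsRed ratio, PSI derived from sequencing read proportions per bin multiplied by bin number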
protein stability index for assorted variants

D11S ... 2.64
H8D ... 3.48
E16Q ... 2.38
E23K ... 2.33
D11I ... 2.83

protein stability index lookup needed for `V21E` , thanks.
3.79

Ok, now `H8F`
1.9

Ok, now `H8W`
2.12

Ok, now `Y10H`
2.9

Ok, now `E7H`
2.17

Ok, now `S14G`
3.45

Ok, now `E23N`
1.96

Ok, now `E23P`
1.96

Ok, now `H8T`
2.91

Ok, now `I9M`
3.06

Ok, now `E16Y`
1.56

Ok, now `D11C`
2.4

Ok, now `S4F`
2.03

Ok, now `L15S`
2.95
